Biological target: Serine/threonine-protein kinase BRSK1 (Homo sapiens)
Settings: at 1 µM

| TEST SMILES | residual activity [%] |
| --- | --- |
| O=C(Nc1cccc(Nc2nccc(Nc3cccc(C(F)(F)F)c3)n2)c1)C1CC1 | 26 |
| Nc1n[nH]c2nnc(-c3c(-c4ccccc4)nn4ccccc34)cc12 | 92 |
| O=C(O)c1ccc2c3c1cccc3c(=O)n1c3ccccc3nc21 | 84 |

---

Target: G protein-coupled receptor kinase 5 (Homo sapiens)
Conditions: at 10 µM
We use 90% as the dividing line for residual activity: on or above the line is y, below is n.

| MOLECULE | CLASSIFICATION |
| --- | --- |
| O=Nc1c(-c2c(O)[nH]c3ccccc23)[nH]c2ccccc12 | n |
| COc1ccc(OC)c2c(=S)c3ccccc3[nH]c12 | y |
| O=C1Nc2ccccc2/C1=C1/Nc2ccccc2/C1=N\OCCC(O)CO (stereo unspecified) | n |
| c1ccc2c(-c3ccncc3)c[nH]c2c1 | y |
| c1ccc(-c2n[nH]c3c2oc2ccccc23)cc1 | y |
| Cc1ccc(S(=O)(=O)/C=C/C#N)cc1 | y |
| Cc1ccc(NC2=CC(=O)c3sc(C)nc3C2=O)cc1 | y |
| CCC(=O)Nc1ccc2ncnc(Nc3cccc(Br)c3)c2c1 | y |
| Oc1c2ccccc2c2c3c(cccc13)N=N2 | n |
| CC(C)n1cnc2/c(=N/c3cccc(Cl)c3)nc(NCCO)[nH]c21 | n |
| COc1ccc(C(=O)Nc2sc3c(c2C(N)=O)CCCC3)cc1OC | y |
| Cc1cncc2cccc(S(=O)(=O)N3CCCN(C(=O)CN)C[C@H]3C)c12 | n |
| CO[C@H]1C[C@@H]2CC[C@@H](C)[C@@](O)(O2)C(=O)C(=O)N2CCCC[C@H]2C(=O)O[C@H]([C@H](C)C[C@@H]2CC[C@@H](O)[C@H](OC)C2)CC(=O)[C@H](C)/C=C(\C)[C@@H](O)[C@@H](OC)C(=O)[C@H](C)C[C@H](C)/C=C/C=C/C=C/1C | y |
| CN(C)CCCn1cc(C2=C(c3c[nH]c4ccccc34)C(=O)NC2=O)c2ccccc21 | n |
| c1ccc(-c2n[nH]cc2-c2ccnc3ccccc23)nc1 | y |
| Cc1cccc(-c2[nH]c(C(C)(C)C)nc2-c2ccc3c(c2)OCO3)n1 | y |
| COc1cccc(-c2cc(=O)c3ccccc3o2)c1N | y |
| Oc1ccc(Nc2nc(-c3ccc(Cl)cc3)cs2)cc1 | y |
| CNc1cc2c(Nc3cccc(Br)c3)ncnc2cn1 | y |
| Cc1cc2ncc(-c3ccccc3)nc2cc1C | y |
| O=C1NC(=O)/C(=C\c2ccc3nccnc3c2)S1 | n |
| O=C1Nc2ccc(Br)cc2/C1=C\c1cc2c([nH]1)CCCC2 | y |
| O=[N+]([O-])c1ccc(-c2nc(-c3ccc(F)cc3)c(-c3ccncc3)[nH]2)cc1 | y |
| CO[C@@H]1[C@H](N(C)C(=O)c2ccccc2)C[C@H]2O[C@]1(C)n1c3ccccc3c3c4c(c5c6ccccc6n2c5c31)C(=O)NC4 | n |
| CO[C@H]1[C@@H](OC)C[C@H](C)[C@@H](OC)C2=CC(=O)C=C(NC(=O)/C(C)=C/C=C/[C@H](OC)[C@@H](OC(N)=O)/C(C)=C/[C@@H]1C)C2=O | y |
| Cc1nc2cc3nc(-c4cccs4)cnc3cc2n1C | n |
| CC(C)n1cnc2c(NCc3ccccc3)nc(NCCCO)nc21 | y |
| Cc1nc(-c2ccccc2)c(-c2ccncc2)o1 | y |
| COc1cc2ncnc(N3CCN(C(=O)Nc4ccc(Oc5ccccc5)cc4)CC3)c2cc1OC | y |
| COc1ccc(CNc2nc(N(CCO)CCO)nc3c2ncn3C(C)C)cc1 | y |
